Taken from patent US20230220053A1.

# test target: T1, RBD of SARS-CoV-2 spike protein S1 (recombinant, construct not stated) (SARS-CoV-2, UniProt P0DTC2 328-533)
# T1 construct: also called SARS-COV-2, RBD; RBD-AF647
# experiment: ELISA, RBD coated, scFv titrated, anti-Flag HRP
experimental readout: log10(EC50) (log10 of the value in nM)
Values below are the log10 of the recorded EC50, with nM as the unit.

Solved entries (count: 4):
binder | experimental readout | measured value
2020EP60-F05 scFv (scFv) scFv: QVQLVESGGGVVQPGGSLRLSCAASGFTFSSYGMHWVRQAPGKGLEWVAVISYDGSNKYYADSVKGRFTISRDNSKNTLYLQMNSLRAEDTAVYYCAKARVALGYFDWLLYDGMDVWGQGTTVTVSSGGGGSGGGGSGGGGSSSELTQPPSVSVSPGQTASITCSGDKLGNKYVFWYQQKPGQSPILVIYQDNRRPSGIPERFSGSNSGNTATLTISGDPAMDEADYYCQAWDSSTVVFGGGTKLTVL | log10(EC50) | -0.19
2020EP64-G10 scFv (scFv) scFv: QVQLVQSGGGVVQPGRSLRLSCAASGFTFSSYAMHWVRQAPGKGLEWVAVISYDGSNKYYADSVKGRFTISRDNSKNTLYLQMNSLRAEDTAVYYCARDGEDGYNYISPFDYWGQGTLVTVSSGGGGSGGGGSGGGRSSYELTQPPSVSVAPGETARITCRGNDIGSKSVHWYQQKPGQAPVLVLYYDSDRPSGIPERFSGSNSGNTATLTISSVEAGDEADYYCHVWDIDVVFGGGTKLTVL | log10(EC50) | -0.18
2020EP54-E12 scFv (scFv, also called 2020EP054-E12) scFv: EVQLVESGGGLVQPGGSLRLSCAVTGFIVSSNYMNWVRQAPGKGLEWVSVIYSGGTTYYADSVKGRFTISRDKSKNTLYLQMNNLRAEDTAMYYCATLGNDYGDYGTDYWGQGTLVTVSSGGGGSGGGGSGGGGSQLVLTQPPSVSVSPGQTASISCSGDRLGQKYTSWYQQRPGQSPVLIMYQDNKRPSGIPERFSGSNSGNTATLTISGIQSMDEADYYCQVWDSGSDHAVFGGGTQLTVL | log10(EC50) | -0.31
2020EP54-B02 scFv (scFv) scFv: QVQLVQSGAEVKKPGASVKVSCKASGYTFIGYYMHWMRQAPGQGLEWMGRINPNSGGTNYAEKFQGRVTMTRDTSISTAYMELSRLTFNDTAVYYCARWDSSSWKFDSWGQGTLVTVSSGGGGSGGGGSGGGGSEIVLTQSPSSLSASVGDRVTITCQASQDISNYLNWYQQKPGKAPKLLIYDASNLETGVPSRFSGSGSGTDFTFTISSLQPEDIATYYCQQYDNLPITFGQGTRLEIK | log10(EC50) | 1.88

Q: Please give the measured log10(EC50) for this binder: 2020EP60-A12 scFv (scFv) scFv: EVQLVESGGGVVQPGRSLRLSCAASGFTFSSYGMHWVRQAPGKGLEWVAVISYDGSNKYYADSVKGRFTISRDNSKNTLYLQMNSLRAEDTAVYYCAKGLEYYFDYWGQGTLVTVSSGGGGSGGGGSGGGGSSYELTQPPSLSVSPGQTARITCSGDALPEQYAYWYQQKPGQAPVLVIYKDSERPSGIPERFSGSSSGTTVTLTISGVQAEDEADYYCQAWDSSTVVFGGGTKLTVL
Ans: 0.70
